Each recorded value in this set is attributed to patent US20240116985A1.

Below, each entry is listed with its recorded pIC50.
targetUnderTest: full-length beta-Catenin (Uniprot ID P35222) (Homo sapiens (Human)) (UniProt P35222)
Sequence (P35222 whole entry): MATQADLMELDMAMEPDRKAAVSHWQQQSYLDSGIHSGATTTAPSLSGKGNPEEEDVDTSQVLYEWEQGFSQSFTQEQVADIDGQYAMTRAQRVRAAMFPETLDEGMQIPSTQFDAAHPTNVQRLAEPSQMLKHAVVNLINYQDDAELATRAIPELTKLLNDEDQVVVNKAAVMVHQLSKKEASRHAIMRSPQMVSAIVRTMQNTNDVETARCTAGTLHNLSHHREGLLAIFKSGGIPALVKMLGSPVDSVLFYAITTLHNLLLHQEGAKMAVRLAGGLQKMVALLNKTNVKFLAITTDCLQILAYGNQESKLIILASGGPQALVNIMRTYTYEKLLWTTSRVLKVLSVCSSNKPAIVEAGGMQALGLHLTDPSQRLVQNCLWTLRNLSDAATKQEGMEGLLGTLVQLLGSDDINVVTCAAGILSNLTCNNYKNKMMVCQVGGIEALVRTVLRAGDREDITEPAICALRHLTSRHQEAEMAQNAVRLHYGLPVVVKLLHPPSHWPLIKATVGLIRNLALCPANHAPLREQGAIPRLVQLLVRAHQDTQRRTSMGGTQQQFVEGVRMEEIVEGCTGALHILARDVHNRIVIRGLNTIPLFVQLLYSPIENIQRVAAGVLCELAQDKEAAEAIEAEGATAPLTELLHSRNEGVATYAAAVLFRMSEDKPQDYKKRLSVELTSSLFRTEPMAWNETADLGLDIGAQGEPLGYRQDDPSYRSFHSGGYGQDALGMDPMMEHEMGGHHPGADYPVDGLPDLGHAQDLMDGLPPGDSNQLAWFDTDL
measurementNotes: fluorescence polarization competition; full-length beta-catenin with 5FAM-TCF4(10-53) probe, peptide titrated
Starred links: 1 amine or outer side, 2 acyl side, 3 side chain; linkers in the order of their positions; H or OH if unused. Positions of bridges follow the written chain, without caps; N, C: chain ends. Non-standard residues stand in square brackets, D forms with d. Primed or numbered codes have the meaning given here. PyrS2″ = (S)-3-amino-1-((pent-4-en-1-yloxy)carbonyl)pyrrolidine-3-carboxylic acid (stapling residue), C=CCCCOC(=O)N1CC[C@@](N[*:1])(C(=O)[*:2])C1; B5(16) = 2-amino-2-(pent-4-en-1-yl)hept-6-enoic acid = 2,2-bis(4-pentenyl)glycine (stitching residue), C=CCCCC(CCCC=C)(N[*:1])C(=O)[*:2]; PyrS2 = (S)-3-amino-1-((pent-4-en-1-yloxy)carbonyl)pyrrolidine-3-carboxylic acid, C=CCCCOC(=O)N1CC[C@@](N[*:1])(C(=O)[*:2])C1; B5(3) = 2,2-bis(4-pentenyl)glycine (stitching residue), C=CCCCC(CCCC=C)(N[*:1])C(=O)[*:2]; Phe(2-Cl) = N[C@@H](Cc1ccccc1Cl)C(=O)O; Bta = N[C@@H](Cc1csc2ccccc12)C(=O)O; αAllylPro = C=CC[C@@]1(C(=O)O)CCCN1; tBuAla = CC(C)(C)C[C@H](N)C(=O)O; Cha = N[C@@H](CC1CCCCC1)C(=O)O
Please treat pIC50 as minus the base-10 logarithm of the molar concentration.

binder	pIC50
Ac-[αAllylPro]D[tBuAla][B5(3)]DDAAFL[PyrS2″][Phe(2-Cl)][Bta]S-NH2 (staple 1-4, 4-11; not fully specified; printed as Ac-PL3-Asp-Npg-B5-Asp-Asp-Ala-Ala-Phe-Leu-PyrS2-2C1F-BztA-Ser-NH2) [I-1065]	6.28
Ac-[αAllylPro]D[tBuAla][B5(3)]DEAAFL[PyrS2][Phe(2-Cl)][Bta]Q-NH2 (staple 1-4, 4-11) [I-1063]	6.33
Ac-[αAllylPro]D[Cha][B5(16)]DDAAFS[PyrS2″][Phe(2-Cl)][Bta]Q-NH2 (staple 1-4, 4-11) [I-1044]	8.30

Noted for Ac-[αAllylPro]D[Cha][B5(16)]DDAAFT[PyrS2″][Phe(2-Cl)][Bta]Q-NH2 (staple 1-4, 4-11) [I-1042] : its pIC50 reads 8.30

Noted for Ac-[αAllylPro]D[tBuAla][B5(3)]DDAAFL[PyrS2″][Phe(2-Cl)][Bta]T-NH2 (staple 1-4, 4-11; also: staple stereoisomer: later eluting HPLC peak) [I-1069] : its pIC50 reads 6.04
